- test_protocol: Fraction unbound in New Zealand White rabbit plasma at 200 ng/mL by HPLC-MS/MS analysis
- Type: ADME, cell-free, Oryctolagus cuniculus
parameter_measured: fraction unbound at 200 ng/mL

Input line: // query fraction unbound at 200 ng/mL value for entry CSc1cc(C)nc(SC)c1NC(=O)CN1CCN(CCSc2nc3ccccc3[nH]2)CC1.Cl
Output line: 0.027

----------
- test_protocol: Toxicity in po dosed male monkey after 26 weeks
- Type: organism-based, Macaca mulatta
- condition_context: rhesus monkey, in vivo
parameter_measured: NOAEL at 4368 h (mg/kg)
Give the value in mg/kg but do not write mg/kg after it.

Input line: Fill in the blank: the reported NOAEL at 4368 h of CSc1cc(C)nc(SC)c1NC(=O)CN1CCN(CCSc2nc3ccccc3[nH]2)CC1.Cl is ____.
Output line: 10

----------
- test_protocol: Cmax in non-fasted Beagle dog at 10 mg/kg, po by LC/MS analysis
- Type: ADME, organism-based, Canis lupus familiaris
- Set-up: dose 10 mg/kg, route oral
- condition_context: in vivo
parameter_measured: Cmax

Input line: What value of Cmax has been recorded for this entry: CSc1cc(C)nc(SC)c1NC(=O)CN1CCN(CCSc2nc3ccccc3[nH]2)CC1.Cl
Output line: 1420 ng/mL

----------
- test_protocol: Cmax in monkey
- Format: ADME, organism-based, Macaca mulatta
- condition_context: rhesus monkey, in vivo
parameter_measured: Cmax (ng/mL)
// note: answer is a bare numeric in ng/mL

Input line: What value of Cmax has been recorded for this entry: CSc1cc(C)nc(SC)c1NC(=O)CN1CCN(CCSc2nc3ccccc3[nH]2)CC1.Cl
Output line: 1000

----------
- test_protocol: Cmax in fasted Beagle dog at 10 mg/kg, po by LC/MS analysis
- Assay type: ADME, organism-based, Canis lupus familiaris
- Parameters: dose 10 mg/kg, route oral
- condition_context: in vivo
parameter_measured: Cmax (ng/mL)
Field: numeric (ng/mL). Do not append units.

Input line: Suppose we examine the compound CSc1cc(C)nc(SC)c1NC(=O)CN1CCN(CCSc2nc3ccccc3[nH]2)CC1.Cl ; what Cmax value has been reported?
Output line: 5470

----------
- test_protocol: Cmax in fasted Sprague-Dawley rat at 30 mg/kg, po by LC/MS analysis
- Type: ADME, organism-based
- Design: dose 30 mg/kg, route oral
- condition_context: in vivo
parameter_measured: Cmax (ng/mL)
Report as a plain number; the unit ng/mL is understood.

Input line: GET /values?readout=Cmax&item= CSc1cc(C)nc(SC)c1NC(=O)CN1CCN(CCSc2nc3ccccc3[nH]2)CC1.Cl
Output line: 568

----------
Each entry below carries its recorded AUC(0-inf).
- test_protocol: AUC (0 to infinity) in Sprague-Dawley rat at 30 mg/kg, po by LC/MS analysis
- Type: ADME, organism-based
- Set-up: dose 30 mg/kg, route oral, time infinity
- condition_context: in vivo

CSc1cc(C)nc(SC)c1NC(=O)CN1CCN(CCSc2nc3ncccc3o2)CC1 : 2820 ng·h/mL
CSc1cc(C)nc(SC)c1NC(=O)CN1CCN(CCSc2nc3ccccc3o2)CC1 : 4120 ng·h/mL

In the following, a different compound is considered.
Input line: Fill blank: measured AUC(0-inf) of the compound CSc1cc(C)nc(SC)c1NC(=O)CN1CCN(CCSc2nc3ccccc3[nH]2)CC1.Cl is ____.
Output line: 594 ng·h/mL
